- target or system: PCP receptors
- assay details: Radioreceptor assay (3H-TCP displacement, rat brain membranes)
- condition label: read-out: Ki apparent; 1 nM 3H-TCP, whole rat brain membranes, 1 h incubation, Cheng & Prusoff
pKi: −log10 of the molar value. Counter-ions that a name gives are not always drawn.
Note to self: values exactly at 6 are True. So pKi at or above 6 is True, below is False.

compound | class label
c1csc(C2(N3CCCCC3)CCCCC2)c1 [TCP, reference compound] | True
Cc1cc(O)cc(C)c1C[C@H](N)C(=O)N1Cc2ccccc2CCc2ccccc21 [Compound No. 12, monohydrochloride] | False
Cc1cc(O)cc(C)c1C[C@H](N)C(=O)N(C)c1ccccc1 [Compound No. 3, monohydrochloride] | False
COc1ccc2c(c1)CCCN2C(=O)[C@@H](N)Cc1c(C)cc(O)cc1C [Compound No. 9, monohydrochloride] | False
COc1cc(C)c(C[C@H](N)C(=O)N2CCCc3ccccc32)c(C)c1 [Compound No. 10, monohydrochloride] | False
Cc1cc(O)cc(C)c1C[C@H](N)C(=O)N1CCCc2ccccc21 [Compound No. 4, monohydrochloride] | True

Attribution: patent US6114381A
